# system.tested: T1, C10orf54 (antigen of the KD values in Table 42) (human, UniProt Q9H7M9 33-311, limits assumed)
# T1 sequence: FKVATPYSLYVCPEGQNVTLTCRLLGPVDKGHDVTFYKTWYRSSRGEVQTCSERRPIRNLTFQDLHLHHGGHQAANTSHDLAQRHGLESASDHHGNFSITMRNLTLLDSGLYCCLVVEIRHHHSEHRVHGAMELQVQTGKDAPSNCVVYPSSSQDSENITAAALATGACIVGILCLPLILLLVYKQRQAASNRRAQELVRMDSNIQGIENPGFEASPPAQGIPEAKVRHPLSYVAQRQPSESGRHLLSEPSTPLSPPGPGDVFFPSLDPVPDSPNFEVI
# test: method and antigen form not stated
measurement.type: pKd
Expect pKd as a plain number equal to -log10 of the molar concentration.

// known answers, use as guide
binder: murine monoclonal antibody 33A (antibody, V domains shown, Mouse hybridoma antibody) VH: QVQLQQSGAELMKPGASVKISCKATGYTFSSYWIEWVKQRPGHGLEWIGEILPGSGSTSYNEKFKGKATFTADTSSNTAYMQLSGLTSEDSAVYYCARWLLYYYAMVYWGQGTSVTVSS VL: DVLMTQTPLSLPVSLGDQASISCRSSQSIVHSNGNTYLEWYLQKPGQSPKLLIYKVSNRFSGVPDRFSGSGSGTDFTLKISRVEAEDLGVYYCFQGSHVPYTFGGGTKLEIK
pKd: 8.18

binder: murine monoclonal antibody 230A (antibody, V domains shown, Mouse hybridoma antibody) VH: EVQLQQSGPELEKPGASVKISCKASGYSFTGSNMNWVKQNNGKSLEWIGNIDPYYGYTTYNQKFKGKATLTVDKSSSTAYMQLKSLTSEDSAVYYCARDYDYALGYFDVWGAGTTVTVSS VL: DVVMTQTPLSLPVSLGDQASISCRSSQSLVHSNGNTYLHWYLQKPGQSPKLLIYKVSNRFSGVPDRFSGSGSGTDFTLKISRVEAEDLGVYFCSQSTHVPYTFGGGTKLEIK
pKd: 8.98

Here is another binder to look at.
Q. Entry murine monoclonal antibody 128A (antibody, V domains shown, Mouse hybridoma antibody) VH: QVQLQQSGAELVRPGVSVKISCKGSGYTFTDYGMHWVKQSHAKSLEWIGLIDTYYGDATYNHKFKGKATMTVDKSSRTAYMELARLTSEDSAIYYCARRAGNAMDYWGQGTSVTASS VL: NIAMTQTPKFLLVSAGDRVTITCKASQSVSNDIAWYQQKPGQSPRLLIYYASNRYTGVPDRFTGSGYGTDFTFTISTVQAEDLAVYFCQQDYSSPRTFGGGTKLEIK has what pKd?
A. 9.20
